- Test system: heme oxygenase-1 (HO-1)
- Assay explanation: High throughput screen: HO-1 promoter/enhancer luciferase reporter (pHOGL3/4.5+220) in stable HEK293 cells
- Format: cell-based
- Protocol conditions: Homo sapiens, Table 1, evaluation of biaryl aminomaleimides, HO-1 induction
Endpoint: pEC50
Give only the number. pEC50 is defined as minus log10 of concentration in molar units.

Tell me measured pEC50 for "O=C1C=C(Nc2cc(F)c(O)c(F)c2)C(=O)N1c1ccc(OC(F)F)cc1" please. 5.64

Tell me measured pEC50 for "O=C1C=C(Nc2cc(F)c(O)c(F)c2)C(=O)N1c1ccccc1C(F)(F)F" please. 4.71

Tell me measured pEC50 for "O=C1C=C(Nc2ccc(O)cc2F)C(=O)N1c1ccccc1" please. 5.75

Tell me measured pEC50 for "O=C1C=C(Nc2cc(F)c(O)c(F)c2)C(=O)N1c1cccc2ccccc12" please. 4.44

Tell me measured pEC50 for "O=C1C=C(Nc2cc(F)c(O)cc2F)C(=O)N1c1ccccc1" please. 5.53

Tell me measured pEC50 for "O=C1C=C(Nc2cc(F)c(O)c(F)c2)C(=O)N1c1ccc2c(c1)OCO2" please. 4.89

Tell me measured pEC50 for "O=C1C=C(Nc2ccc(O)cc2Cl)C(=O)N1c1ccccc1" please. 5.76

Tell me measured pEC50 for "O=C1C=C(Nc2ccc(F)c(F)c2O)C(=O)N1c1ccccc1" please. 4.92

Tell me measured pEC50 for "NC(=O)c1cccc(N2C(=O)C=C(Nc3cc(F)c(O)c(F)c3)C2=O)c1" please. 4.81

Tell me measured pEC50 for "O=C1C=C(Nc2cc(F)c(O)c(F)c2)C(=O)N1c1ccc(O)cc1" please. 4.82

Tell me measured pEC50 for "Cc1ccc(N2C(=O)C=C(Nc3cc(F)c(O)c(F)c3)C2=O)cc1" please. 5.68

Tell me measured pEC50 for "O=C1C=C(Nc2cc(F)c(O)c(F)c2)C(=O)N1c1ccc(OC(F)(F)F)cc1" please. 5.64

Tell me measured pEC50 for "O=C1C=C(Nc2cc(F)c(O)c(F)c2)C(=O)N1c1ccc(N2CCCCC2)cc1" please. 4.94

Tell me measured pEC50 for "Cc1ccc(N2C(=O)C=C(Nc3cc(F)c(O)c(F)c3)C2=O)c(C)c1" please. 5.64

Tell me measured pEC50 for "O=C1C=C(Nc2ccc(O)cc2)C(=O)N1c1ccccc1" please. 5.74

Source of measurements: patent US11753374B2
